src = patent EP4786492A1

Below: a set of entries, each annotated with reported MFI.
study_system: human DLL3 endogenously expressed on SHP77 and NCI-H82 cells (human) (UniProt Q9NYJ7)
Sequence (Q9NYJ7 27-618): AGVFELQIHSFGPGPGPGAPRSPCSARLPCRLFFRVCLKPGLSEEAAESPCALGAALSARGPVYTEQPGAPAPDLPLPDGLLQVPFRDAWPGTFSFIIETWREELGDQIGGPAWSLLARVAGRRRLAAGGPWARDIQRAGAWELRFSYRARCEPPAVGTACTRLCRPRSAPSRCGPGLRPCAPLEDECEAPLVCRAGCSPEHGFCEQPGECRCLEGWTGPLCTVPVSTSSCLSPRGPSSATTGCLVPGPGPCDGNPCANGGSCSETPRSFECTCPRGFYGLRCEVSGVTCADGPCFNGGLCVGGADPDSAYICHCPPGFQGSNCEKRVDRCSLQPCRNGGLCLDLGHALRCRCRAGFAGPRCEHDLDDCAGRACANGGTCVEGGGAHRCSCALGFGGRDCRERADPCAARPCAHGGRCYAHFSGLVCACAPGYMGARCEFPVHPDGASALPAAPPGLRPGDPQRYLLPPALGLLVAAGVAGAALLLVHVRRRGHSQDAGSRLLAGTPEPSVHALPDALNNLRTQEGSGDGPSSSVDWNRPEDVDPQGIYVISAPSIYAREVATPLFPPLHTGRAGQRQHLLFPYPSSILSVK
protocol_description: FACS SHP77 cells, 100 nM
The answer is to be given in MFI; state only the numeric part.

Example cases with answers are listed next.
binder	quantity_unit	MFI
mab006 scFv-hFc (Fc fusion, not shown: small tags and cut ends; a dimerising Fc or GST) scFv (part 1 of 2): DVQITQSPSYLAASPGETITINCRATKSISKYLAWYQEKPGKTNKLLIFSGSTLQSGIPSRFRGSGSGTDFTLTISSLEPEDFAMYYCQQHHEYPYTFGGGTKLEIK scFv (part 2 of 2): QVQLQQPGAELVRPGTSVKLSCKASGYTFTSYWMHWVRQRPGQGLEWIGVIDPSDSLANYNQEFKGKATLTVDTSSSTAYMQLSSLTSEDSAVYYCARDSTVVAPMDYWGQGTSVTVSS	MFI	876
mab011 scFv-hFc (Fc fusion, not shown: small tags and cut ends; a dimerising Fc or GST) scFv (part 1 of 2): DIVLTQSPATLSVTPGDSVSLSCRASQSISNNLHWYQQKSHESPRLLIKYASQSISGIPSRFSGSGSGTDFTLSINSVETEDFGMYFCQQSNSWPWTFGGGTKLEIK scFv (part 2 of 2): EVQLQQSGPELVKPGASVKISCKASGYTFTDYYMNWVKQSHGKSLEWIGDISPNYGGTNYNQKFKGKATLTVDKSSSTACMELRSLTSEDSAVYYCTRSFYYYGTGYDWYFDVWGTGTTVTVSS	MFI	822
mab007 scFv-hFc (Fc fusion, not shown: small tags and cut ends; a dimerising Fc or GST) scFv (part 1 of 2): DVQITQSPSYLAASPGETITINCRASTSISKYLAWYQERPGKTNKLLIYSGSTLQSGIPSRFRGSGSGTDFTLTISSLEPEDFAMYYCQQHHVYPYTFGGGTKLEIK scFv (part 2 of 2): QVQLQQPGAELVRPGTSVKLSCKASGYTFTSYWMHWVKQRPGQGLEWIGVIDPSDSLANYNQEFKGKATLTVDTSSSTAYMQLSSLTSEDSAVYYCARDSTVVAPMDYWGQGTSVTVSS	MFI	521
mab012 scFv-hFc (Fc fusion, not shown: small tags and cut ends; a dimerising Fc or GST) scFv (part 1 of 2): DVLMTQTPLSLPVSLGDQASISCRSSQSIVHSDGNTYLEWYLQKPGQSPKLLIYKVSNRFSGVPDRFSGSGSGTDFTLKISRVEAEDLGFYYCFQGSHVPFTFGSGTKLEIK scFv (part 2 of 2): QVQLQQSGPELVKPGASVKISCKASGYTFTDYYIHWVKQRPGQGLEWIGWTLPGSGSPYYNEKFKGKATLTVDKSSSTAYMLLSSLTSEDSAVYFCARWHYYYGSSYHFDYWGQGTTLTVSS	MFI	1100
mab014 scFv-hFc (Fc fusion, not shown: small tags and cut ends; a dimerising Fc or GST) scFv (part 1 of 2): DIQMTQSSSSFSVSLGDRVTITCKASEDIYNRLAWYQQKPGNTPRLLISGATSLETGVPSRFSGSGSGKDFTLSITSLQTEDVATYYCQQYWSLPWTFGGGTKLEIK scFv (part 2 of 2): EVQLHQSGPELVKPGTSVKISCKASGYTFTDYYMNWVKQSHGKSLEWIGDINPNHGDTGYNQKFTGKATLTVDKSSSTAYMELRSLTSEDSAVYYCARNFFYYGTTYGWYFDVWGTGTTVTVSS	MFI	1200
mab008 scFv-hFc (Fc fusion, not shown: small tags and cut ends; a dimerising Fc or GST) scFv (part 1 of 2): DIVMTQSQKFMSTSVGDRVSITCKASQNVGTAVAWYQQKPGQSPKLLIFSASIRYTGVPDRFTGSGSGTDFTLTISNMQSEDLADYFCQQYSSSPYTFGGGTKLEIK scFv (part 2 of 2): EVQLQQSGPVLVKPGASVKMSCKASGYTFTDYYMNWVKRSHGKSLEWIGIINPYNGGTSYNQKFRGKATLTVDKSSNTAYMELNSLTSEDSAVYYCSRYDYDYDVEGAMDYWGQGTSVTVSS	MFI	412

Qu. Which value of MFI has been reported for mab010 scFv-hFc (Fc fusion, not shown: small tags and cut ends; a dimerising Fc or GST) scFv (part 1 of 2): DIQMTQSPASLSVSVGETVTITCRASENINSNLAWYQQKQGKSPQLLVYAATNLADGVPSRFSGSGSGTQFSLKISGLQSEDFGSYYCQHFWGLPWTFGGGTKLEIR scFv (part 2 of 2): QVQLQQSGAELARPGASMKLSCKASGYTFTSYGISWVKQITGQGLEWIGEIFPRSGNTYDNENFRGKATLTADKSSSTAYLEVRSLTSEDSAVYFCARTTVFAPYYFDYWGQGTTLTVSS in the records?
Ans. 1140

Qu. Need MFI of mab003 scFv-hFc (Fc fusion, part only; not given: VL-VH linker and human IgG1 Fc, not shown: another chain or arm of the molecule; a dimerising Fc or GST; small tags and cut ends) scFv (part 1 of 2): DVQITQSPSYLAASPGETITINCRASKSISKYLAWYQEKPGKTNKLLIYSGSTLHSGIPSRFSGSGSGTDFTLTISSLEPEDFAIYYCQQHNEYPLTFGGGTKLELK scFv (part 2 of 2): QVQLQQSGTELMKPGASVKLSCKATGYTFTGNWIEWVKQRPGHGLEWIGEILPGTGSTQYNEKFKGKATFTADPSSNTAYMQLSSLTTEDSAIYYCARWGSTVVAYDYWGQGTTLTVSS , thanks.
Ans. 976
